Test system: MOLP8 cells
experiment: MOLP8 CellEvent Caspase-3/7 Green live-cell IncuCyte apoptosis assay
Type: cell-based, human
details: 22 h, averaged, number of independent runs in brackets, read-out: MOLP8 Caspase 3/7 AC50 at 22 h

| compound | censoring_operator | AC50 [µM] |
| --- | --- | --- |
| Cc1c2c(nn1C)CS(=O)(=O)Cc1cc(n(C)n1)CSc1cc(c3ccccc3c1)OCCCc1c(C(=O)O)n(C)c3c-2c(Cl)ccc13 (single isomer, unassigned) [Compound 4] | = | 21.6 |
| Cc1c2c(nn1C)CS(=O)(=O)Cc1cc(n(C)n1)CSc1cc(c3ccccc3c1)OCCCc1c(C(=O)O)n(C)c3c-2c(Cl)ccc13 (single isomer, unassigned) [Compound 3] | = | 0.54 |
| Cc1c2c(nn1C)CN(C)Cc1cc(n(C)n1)CS(=O)(=O)c1cc(c3ccccc3c1)OCCCc1c(C(=O)O)n(C)c3c-2c(Cl)ccc13 (single isomer, unassigned) [Compound 1] | = | 5.75 |
| Cc1c2c(nn1C)CN(C)Cc1cc(n(C)n1)CS(=O)(=O)c1cc(c3ccccc3c1)OCCCc1c(C(=O)O)n(C)c3c-2c(Cl)ccc13 (single isomer, unassigned) [Compound 2] | > | 30.2 |
